System: SK-LMS-1
Assay: relative viability vs DMSO control (72 h) (fraction); higher = more viable cells
Conditions: 0.00051 µM
quantityName: relative viability
Provide a numeric answer; units are not to be included.

**Q:** # input molecule: NC(=O)c1cccc2cn(-c3ccc([C@@H]4CCCNC4)cc3)nc12 [Niraparib] ; wanted: its relative viability
**A:** 1.12

**Q:** relative viability lookup needed for COc1cc(OC)cc(N(CCNC(C)C)c2ccc3ncc(-c4cnn(C)c4)nc3c2)c1 [Erdafitinib] , thanks.
**A:** 0.991

**Q:** Which relative viability is listed for C[C@@H](Oc1cc(-c2cnn(C3CCNCC3)c2)cnc1N)c1c(Cl)ccc(F)c1Cl [Crizotinib] ?
**A:** 1.02

**Q:** Bench note: what relative viability did Cc1cn(-c2cc(NC(=O)c3ccc(C)c(Nc4nccc(-c5cccnc5)n4)c3)cc(C(F)(F)F)c2)cn1 [Nilotinib] show?
**A:** 0.983

---

Test system: KHOS-NP
Test: relative viability vs DMSO control (72 h) (fraction); higher = more viable cells
Conditions: 0.04115 µM
quantityName: relative viability
// keep it numeric: no unit symbol after the value

**Q:** GET /values?readout=relative viability&item= C#Cc1cccc(Nc2ncnc3cc(OCCOC)c(OCCOC)cc23)c1
**A:** 1.1

**Q:** // returns reported relative viability for input CCCS(=O)(=O)N[C@H]1C[C@@H](N(C)c2ncnc3[nH]ccc23)C1
**A:** 1.04

**Q:** Consider the molecule NC(=O)c1cnc2[nH]ccc2c1N[C@@H]1[C@@H]2CC3C[C@H]1C[C@@](O)(C3)C2 and give its measured relative viability.
**A:** 1.06

**Q:** Item under review: COc1cc2c(Oc3ccc4[nH]c(C)cc4c3F)ccnc2cc1OCC1(N)CC1 . Reported relative viability?
**A:** 1.05

**Q:** Request the reported relative viability associated with C=CC(=O)Nc1cccc(Nc2nc(Nc3ccc(N4CCN(C(C)=O)CC4)cc3OC)ncc2C(F)(F)F)c1
**A:** 1.06

**Q:** Reported relative viability, molecule COc1cc2ncnc(Nc3cccc(Cl)c3F)c2cc1OC(=O)N1CCN(C)C[C@H]1C : ____
**A:** 1.07

**Q:** Given the molecule Cc1cn(-c2cc(NC(=O)c3ccc(C)c(Nc4nccc(-c5cnccn5)n4)c3)cc(C(F)(F)F)c2)cn1 , what is its reported relative viability?
**A:** 1.12

**Q:** What value of relative viability has been reported for the following molecule? CCN(CCCOc1ccc2c(Nc3cc(CC(=O)Nc4cccc(F)c4)[nH]n3)ncnc2c1)CCOP(=O)(O)O
**A:** 1.07

---

System: HT1080
Assay: relative viability vs DMSO control (72 h) (fraction); higher = more viable cells
Details: 0.1235 µM
quantityName: relative viability
Form: value (number only, do not type unit).

**Q:** Consider the molecule shown here: COc1cc2ncnc(Nc3cccc(Cl)c3F)c2cc1OC(=O)N1CCN(C)C[C@H]1C [AZD-3759] What is its recorded relative viability?
**A:** 1.01

**Q:** Field request: relative viability | item: C=CC(=O)Nc1cc(Nc2nccc(-c3cn(C)c4ccccc34)n2)c(OC)cc1N(C)CCN(C)C [Osimertinib]
**A:** 1.07

**Q:** Query: relative viability; subject: CO[C@H]1C[C@@H]2CC[C@@H](C)[C@@](O)(O2)C(=O)C(=O)N2CCCC[C@H]2C(=O)O[C@H]([C@H](C)C[C@@H]2CC[C@@H](O)[C@H](OC)C2)CC(=O)[C@H](C)/C=C(\C)[C@@H](O)[C@@H](OC)C(=O)[C@H](C)C[C@H](C)/C=C/C=C/C=C/1C [Rapamycin]
**A:** 0.932

**Q:** Entry CC[C@@H]1C(=O)N(C)c2cnc(Nc3ccc(C(=O)N[C@H]4CC[C@H](N5CCN(CC6CC6)CC5)CC4)cc3OC)nc2N1C(C)C [Volasertib] : reported relative viability = ?
**A:** 0.239

**Q:** For the molecule CCCCCCCCCCCCCCCCCCOP(=O)([O-])OC1CC[N+](C)(C)CC1 [Perifosine] , what relative viability is on record?
**A:** 1.04

**Q:** For the molecule CN(C)C[C@@H]1CCn2cc(c3ccccc32)C2=C(C(=O)NC2=O)c2cn(c3ccccc23)CCO1 [Ruboxistaurin] , what relative viability is on record?
**A:** 1.08

---

Test system: SK-ES-1
Test: relative viability vs DMSO control (72 h) (fraction); higher = more viable cells
Settings: 0.3704 µM
So I've got a bunch of molecules here, and I need their relative viability values.
Hey, just send me the number, nothing else.

**Q:** Suppose we examine the molecule Cc1c(F)cc(C(=O)NC2CC2)cc1-c1ccc(C(=O)NCC(C)(C)C)cn1 ; what relative viability value has been reported?
**A:** 0.993

**Q:** Item COc1cc(Nc2c(C#N)cnc3cc(OCCCN4CCN(C)CC4)c(OC)cc23)c(Cl)cc1Cl has what recorded relative viability?
**A:** 0.732

**Q:** I would be grateful if you could share the reported relative viability for COc1cc2c(Oc3ccc4[nH]c(C)cc4c3F)ccnc2cc1OCC1(N)CC1 .
**A:** 1.07

**Q:** Give the measured relative viability of CN1CCN(CCOc2cc(OC3CCOCC3)c3c(Nc4c(Cl)ccc5c4OCO5)ncnc3c2)CC1 .
**A:** 0.951

---

System: SW872
Test: relative viability vs DMSO control (72 h) (fraction); higher = more viable cells
Settings: 0.3704 µM
# note: boundary value 0.9 maps to condition not met; relative viability below it maps to condition met

**Q:** Is it true that relative viability reported for CCCS(=O)(=O)N[C@H]1C[C@@H](N(C)c2ncnc3[nH]ccc23)C1 is less than 0.9?
**A:** condition not met

**Q:** Field: below-cutoff. Rule: recorded relative viability strictly less than 0.9. Subject: Cc1ccc(C(=O)OCc2ccc([C@@H](CN)C(=O)Nc3ccc4cnccc4c3)cc2)c(C)c1
**A:** condition met

**Q:** Is relative viability of CN1CCN(CCOc2cc(OC3CCOCC3)c3c(Nc4c(Cl)ccc5c4OCO5)ncnc3c2)CC1 strictly below 0.9?
**A:** condition met

**Q:** Decide: relative viability of CC[C@@H]1C(=O)N(C)c2cnc(Nc3ccc(C(=O)N[C@H]4CC[C@H](N5CCN(CC6CC6)CC5)CC4)cc3OC)nc2N1C(C)C strictly below 0.9?
**A:** condition met

**Q:** Does the reported relative viability of the following compound sit strictly below 0.9? NC(=O)c1cccc2cn(-c3ccc([C@@H]4CCCNC4)cc3)nc12
**A:** condition not met

**Q:** Quick check: relative viability of COc1cc2c(Oc3ccc4[nH]c(C)cc4c3F)ccnc2cc1OCC1(N)CC1 under 0.9?
**A:** condition not met

**Q:** Here's an entry: COc1cc2nccc(Oc3ccc(NC(=O)NC4CC4)c(Cl)c3)c2cc1C(N)=O . Is its relative viability below 0.9?
**A:** condition not met

**Q:** Quick check: does CN(C)C[C@@H]1CCn2cc(c3ccccc32)C2=C(C(=O)NC2=O)c2cn(c3ccccc23)CCO1 have relative viability under 0.9?
**A:** condition not met

**Q:** Determine whether this compound shows relative viability lower than 0.9 (ties excluded): CCCCCCCCCCCCCCCCCCOP(=O)([O-])OC1CC[N+](C)(C)CC1
**A:** condition not met

---

Give measured relative viability for each item. Keep answers brief.
Tested on: SW872
Test: relative viability vs DMSO control (72 h) (fraction); higher = more viable cells
Settings: 1.111 µM
Would you mind answering with just the numeric figure?

**Q:** Name the recorded relative viability for NC(=O)c1cnc2[nH]ccc2c1N[C@@H]1[C@@H]2CC3C[C@H]1C[C@@](O)(C3)C2 [Peficitinib] .
**A:** 0.999

**Q:** Any idea what its relative viability is? The molecule is C#Cc1cccc(Nc2ncnc3cc(OCCOC)c(OCCOC)cc23)c1 [Erlotinib]
**A:** 1.04

**Q:** Looking for the measured relative viability of Cc1cccc(-c2[nH]c(CNc3ccccc3F)nc2-c2ccc3ncnn3c2)n1 [Vactosertib] , can you help?
**A:** 1.06

**Q:** Would you kindly share the measured relative viability for CNC(=O)c1cc(Oc2ccc(NC(=O)Nc3ccc(Cl)c(C(F)(F)F)c3)cc2)ccn1 [Sorafenib] ?
**A:** 1.07

**Q:** I would be grateful if you could share the reported relative viability for Cc1ccc(NC(=O)c2ccc(CN3CCN(C)CC3)cc2)cc1Nc1nccc(-c2cccnc2)n1 [Imatinib] .
**A:** 0.982

**Q:** Query (molecule): CCCCCCCCCCCCCCCCCCOP(=O)([O-])OC1CC[N+](C)(C)CC1 [Perifosine] ; field requested: relative viability
**A:** 0.891

---

Tested on: HS729
Assay: relative viability vs DMSO control (72 h) (fraction); higher = more viable cells
Conditions: 0.00051 µM
Cut-off 1 on relative viability: below means T, at or above means F.

**Q:** Dear reviewer, please state whether C1=N/C2=N/c3ccc(OCCN4CCCC4)c(c3)COC/C=C/COCc3cccc(c3)C(=C1)N2 has relative viability strictly beneath 1.
**A:** F

**Q:** Please let me know if CCCCCCCCCCCCCCCCCCOP(=O)([O-])OC1CC[N+](C)(C)CC1 shows relative viability below 1.
**A:** T

**Q:** Is 1 strictly greater than the compound's reported relative viability? compound: N#CCC1(n2cc(-c3ncnc4[nH]ccc34)cn2)CN(C2CCN(C(=O)c3ccnc(C(F)(F)F)c3F)CC2)C1
**A:** T

**Q:** Bench note: check whether Cc1nc(Nc2ncc(C(=O)Nc3c(C)cccc3Cl)s2)cc(N2CCN(CCO)CC2)n1 shows relative viability below 1
**A:** T

Sourced from the supplement of paper PMC10883282
